assay.remarks: Pharmacokinetics of M6G at single and multiple intravenous doses in healthy volunteers
Type: in vivo, human
test.context: both sexes, human, plasma, intravenous, 30 mg/70 kg, single 5 min infusion 30 mg/70 kg; read-out: AUC0-t, Geometric LS means
experimental.readout: AUC(0-t) (ng·h/mL)
Give just the number in ng·h/mL; leave the unit off.

(Q) Respond only with AUC(0-t) recorded for CN1CC[C@]23c4c5ccc(O)c4O[C@H]2[C@@H](OC2OC(C(=O)O)C(O)C(O)C2O)C=CC3[C@H]1C5 (stereo partly shown)
(A) 3880

###

assay.remarks: Pharmacokinetics of M6G at single and multiple intravenous doses in healthy volunteers
Assay type: in vivo, human
test.context: both sexes, human, plasma, iv, 15 mg/70 kg, single 5 min iv infusion 15 mg; Geometric Mean; read-out: AUC0-∞
experimental.readout: AUC(0-inf)

(Q) Respond only with AUC(0-inf) recorded for CN1CC[C@]23c4c5ccc(O)c4O[C@H]2[C@@H](OC2OC(C(=O)O)C(O)C(O)C2O)C=CC3[C@H]1C5 (stereo partly shown)
(A) 1910 ng·h/mL

###

assay.remarks: Pharmacokinetics of M6G at single and multiple intravenous doses in healthy volunteers
Type: in vivo, human
test.context: both sexes, human, plasma, iv, 45 mg/70 kg, single 5 min iv infusion 45 mg; Median; read-out: t½ (converted)
experimental.readout: half-life (h)
Give just the number in h; leave the unit off.

(Q) Respond only with half-life recorded for CN1CC[C@]23c4c5ccc(O)c4O[C@H]2[C@@H](OC2OC(C(=O)O)C(O)C(O)C2O)C=CC3[C@H]1C5 (stereo partly shown) [M6G]
(A) 1.69

###

assay.remarks: Pharmacokinetics of M6G at single and multiple intravenous doses in healthy volunteers
Type: in vivo, human
test.context: both sexes, human, plasma, iv, 15 mg/70 kg, single 5 min iv infusion 15 mg; Mean; read-out: AUC0-∞
experimental.readout: AUC(0-inf) (ng·h/mL)
Give just the number in ng·h/mL; leave the unit off.

(Q) Respond only with AUC(0-inf) recorded for CN1CC[C@]23c4c5ccc(O)c4O[C@H]2[C@@H](OC2OC(C(=O)O)C(O)C(O)C2O)C=CC3[C@H]1C5 (stereo partly shown)
(A) 1930

###

assay.remarks: Pharmacokinetics of M6G at single and multiple intravenous doses in healthy volunteers
Assay type: in vivo, human
test.context: both sexes, human, plasma, intravenous, 15 mg/70 kg, multiple dose, Dose 1-15 mg; Mean; read-out: MRT0-∞
Procedure: Healthy male and female subjects were divided into two groups (A and B) with 12 in each. Group A received three single intravenous infusions of M6G over 5 mins at levels of 15, 30 and 45 mg/70 kg in random order, having taken 50 mg of naloxone orally 24 hrs beforehand. […] Vital signs (supine blood pressure, pulse, respiratory rate and oral temperature), respiration rate, pulse oximetry and adverse events were monitored during the study. Plasma levels of M6G were measured using HPLC/ms/ms.
experimental.readout: MRT inf
Mention the unit after the number when you answer.

(Q) Respond only with MRT inf recorded for CN1CC[C@]23c4c5ccc(O)c4O[C@H]2[C@@H](OC2OC(C(=O)O)C(O)C(O)C2O)C=CC3[C@H]1C5 (stereo partly shown)
(A) 2.1 h

###

assay.remarks: Pharmacokinetics of M6G at single and multiple intravenous doses in healthy volunteers
Format: in vivo, human
test.context: both sexes, human, plasma, iv, 30 mg/70 kg, single 5 min iv infusion 30 mg; Median; read-out: AUC0-∞
experimental.readout: AUC(0-inf) (ng·h/mL)
Give just the number in ng·h/mL; leave the unit off.

(Q) Respond only with AUC(0-inf) recorded for CN1CC[C@]23c4c5ccc(O)c4O[C@H]2[C@@H](OC2OC(C(=O)O)C(O)C(O)C2O)C=CC3[C@H]1C5 (stereo partly shown) [M6G]
(A) 4000

###

assay.remarks: Pharmacokinetics of M6G at single and multiple intravenous doses in healthy volunteers
Format: in vivo, human
test.context: both sexes, human, plasma, iv, 15 mg/70 kg, single 5 min iv infusion 15 mg; Geometric Mean; read-out: MRT0-∞
experimental.readout: MRT inf (h)
Give just the number in h; leave the unit off.

(Q) Respond only with MRT inf recorded for CN1CC[C@]23c4c5ccc(O)c4O[C@H]2[C@@H](OC2OC(C(=O)O)C(O)C(O)C2O)C=CC3[C@H]1C5 (stereo partly shown) [M6G]
(A) 1.64

###

assay.remarks: Pharmacokinetics of M6G at single and multiple intravenous doses in healthy volunteers
Format: in vivo, human
test.context: both sexes, human, plasma, intravenous, 15 mg/70 kg, multiple dose, Dose 5-15 mg; Mean; read-out: Cmax
experimental.readout: Cmax (ng/mL)
Give just the number in ng/mL; leave the unit off.

(Q) Respond only with Cmax recorded for CN1CC[C@]23c4c5ccc(O)c4O[C@H]2[C@@H](OC2OC(C(=O)O)C(O)C(O)C2O)C=CC3[C@H]1C5 (stereo partly shown)
(A) 2370

###

assay.remarks: Pharmacokinetics of M6G at single and multiple intravenous doses in healthy volunteers
Type: in vivo, human
test.context: both sexes, human, plasma, iv, 30 mg/70 kg, single 5 min iv infusion 30 mg; Median; read-out: MRT0-∞
experimental.readout: MRT inf (h)
Give just the number in h; leave the unit off.

(Q) Respond only with MRT inf recorded for CN1CC[C@]23c4c5ccc(O)c4O[C@H]2[C@@H](OC2OC(C(=O)O)C(O)C(O)C2O)C=CC3[C@H]1C5 (stereo partly shown)
(A) 1.81

###

assay.remarks: Pharmacokinetics of M6G at single and multiple intravenous doses in healthy volunteers
Assay type: in vivo, human
test.context: both sexes, human, plasma, intravenous, 15 mg/70 kg, multiple dose, Dose 5-15 mg; Geometric Mean; read-out: AUC24-∞
experimental.readout: AUC (ng·h/mL)
Give just the number in ng·h/mL; leave the unit off.

(Q) Respond only with AUC recorded for CN1CC[C@]23c4c5ccc(O)c4O[C@H]2[C@@H](OC2OC(C(=O)O)C(O)C(O)C2O)C=CC3[C@H]1C5 (stereo partly shown)
(A) 2170

###

assay.remarks: Pharmacokinetics of M6G at single and multiple intravenous doses in healthy volunteers
Format: in vivo, human
test.context: both sexes, human, plasma, iv, 30 mg/70 kg, single 5 min iv infusion 30 mg; Geometric Mean
experimental.readout: clearance
Mention the unit after the number when you answer.

(Q) Respond only with clearance recorded for CN1CC[C@]23c4c5ccc(O)c4O[C@H]2[C@@H](OC2OC(C(=O)O)C(O)C(O)C2O)C=CC3[C@H]1C5 (stereo partly shown)
(A) 121 mL/min

###

assay.remarks: Pharmacokinetics of M6G at single and multiple intravenous doses in healthy volunteers
Type: in vivo, human
test.context: both sexes, human, plasma, intravenous, 15 mg/70 kg, multiple dose, Dose 5-15 mg; Median; read-out: Cmax
experimental.readout: Cmax (ng/mL)
Give just the number in ng/mL; leave the unit off.

(Q) Respond only with Cmax recorded for CN1CC[C@]23c4c5ccc(O)c4O[C@H]2[C@@H](OC2OC(C(=O)O)C(O)C(O)C2O)C=CC3[C@H]1C5 (stereo partly shown)
(A) 2370

###

assay.remarks: Pharmacokinetics of M6G at single and multiple intravenous doses in healthy volunteers
Type: in vivo, human
test.context: both sexes, human, plasma, intravenous, 15 mg/70 kg, multiple dose, Dose 1-15 mg; Geometric Mean; read-out: t1/2 (converted)
experimental.readout: half-life
Mention the unit after the number when you answer.

(Q) Respond only with half-life recorded for CN1CC[C@]23c4c5ccc(O)c4O[C@H]2[C@@H](OC2OC(C(=O)O)C(O)C(O)C2O)C=CC3[C@H]1C5 (stereo partly shown)
(A) 103 min

###

assay.remarks: Pharmacokinetics of M6G at single and multiple intravenous doses in healthy volunteers
Format: in vivo, human
test.context: both sexes, human, plasma, intravenous, 15 mg/70 kg, multiple dose, Dose 1-15 mg; Mean; read-out: AUC0-6
experimental.readout: AUC(0-t) (ng·h/mL)
Give just the number in ng·h/mL; leave the unit off.

(Q) Respond only with AUC(0-t) recorded for CN1CC[C@]23c4c5ccc(O)c4O[C@H]2[C@@H](OC2OC(C(=O)O)C(O)C(O)C2O)C=CC3[C@H]1C5 (stereo partly shown) [M6G]
(A) 1920

###

assay.remarks: Pharmacokinetics of M6G at single and multiple intravenous doses in healthy volunteers
Type: in vivo, human
test.context: both sexes, human, plasma, intravenous, 15 mg/70 kg, multiple dose, Dose 5-15 mg; Geometric Mean; read-out: AUC24-30
experimental.readout: AUC (ng·h/mL)
Give just the number in ng·h/mL; leave the unit off.

(Q) Respond only with AUC recorded for CN1CC[C@]23c4c5ccc(O)c4O[C@H]2[C@@H](OC2OC(C(=O)O)C(O)C(O)C2O)C=CC3[C@H]1C5 (stereo partly shown)
(A) 2070

###

assay.remarks: Pharmacokinetics of M6G at single and multiple intravenous doses in healthy volunteers
Format: in vivo, human
test.context: both sexes, human, plasma, iv, 30 mg/70 kg, single 5 min iv infusion 30 mg; Geometric Mean; read-out: AUC0-∞
Experimental: Healthy male and female subjects were divided into two groups (A and B) with 12 in each. Group A received three single intravenous infusions of M6G over 5 mins at levels of 15, 30 and 45 mg/70 kg in random order, having taken 50 mg of naloxone orally 24 hrs beforehand. […] Vital signs (supine blood pressure, pulse, respiratory rate and oral temperature), respiration rate, pulse oximetry and adverse events were monitored during the study. Plasma levels of M6G were measured using HPLC/ms/ms.
experimental.readout: AUC(0-inf) (ng·h/mL)
Give just the number in ng·h/mL; leave the unit off.

(Q) Respond only with AUC(0-inf) recorded for CN1CC[C@]23c4c5ccc(O)c4O[C@H]2[C@@H](OC2OC(C(=O)O)C(O)C(O)C2O)C=CC3[C@H]1C5 (stereo partly shown)
(A) 4140

The measured values listed here are drawn from patent US20110294843A1.
